- System: DU-145 prostate
- EXPERIMENT_DESCRIPTION: NCI-60 one-dose screen, 48 h (100 = growth as untreated, 0 = no growth, -100 = all killed)
- TEST_SETTINGS: 10 µM unless noted
- Protocol: Cells are grown in 96 well plates and exposed to the test compound for 48 hours. Compounds are tested at a single concentration, which is 10^-5 M for most compounds. The reported endpoint is percent growth (GI% or GIPRCNT), where numbers from 0 - 100% represent growth inhibition, and numbers from -100% - 0 represent cell death. For example, a value of 40 represents 60% growth inhibition. A value of 0 means no net growth occurred over the course of the experiment. […]
Compounds without any hit were thinned out: in the full panel of roughly 83,000, 20% have a hit. Activity calls are given as the source filed them. The calls were made as follows: active = growth percent below 10; inactive = the rest.
QUANTITY: growth

[[record]]
compound = "Cc1cc(=O)[nH]c(N=Nc2c(O)[nH]c3ccccc23)n1"
test_result = "117% (inactive)"

[[record]]
compound = "Cc1ccc(Nc2nc(N)nc(CSCC(=O)NN)n2)cc1"
test_result = "103% (inactive)"

[[record]]
compound = "O=C(/C=C/c1c(Cl)nc2sccn12)c1nccs1"
test_result = "112% (inactive)"

[[record]]
compound = "O=S(=O)(NCCCNc1cc(-c2c(-c3cccc(O)c3)nc3sccn23)ccn1)c1cccc(Cl)c1"
test_result = "55.9% (inactive)"

[[record]]
compound = "Cc1cc(NCc2cc(Nc3ccnc4cc(Cl)ccc34)ccc2F)nc(N2CCN(C)CC2)n1"
test_result = "23.4% (inactive)"

[[record]]
compound = "NNC(=O)c1nc(N)n(-c2ccc(S(N)(=O)=O)cc2)n1"
test_result = "92.8% (inactive)"


growth measured on c1ccc2c(c1)nc(CN1CCOCC1)n1cc(N3CCCC3)nc21 = 106% (inactive)

growth measured on COc1ccc(/C=N/C2=C(C#N)C(c3ccc(OC)cc3)c3ccc4ccccc4c3O2)cc1 (stereo unspecified) = 97.7% (inactive)

growth measured on c1ccc2cc3nc4cc5ccccc5cc4nc3cc2c1 = 110% (inactive)

growth measured on COc1cc(N2C(=O)c3nccnc3C2=O)cc(OC)c1OC = 115% (inactive)

growth measured on NC(=O)c1ccc[n+](Cc2ccc(Cl)cc2Cl)c1 = 111% (inactive)

growth measured on CC1(C)CC(=O)C2=C(C1)N(c1ccc(OC(F)(F)F)cc1)C(N)=C(C#N)C2c1ccc(Cl)cc1 (stereo unspecified) = 91.3% (inactive)

growth measured on Cc1c(Cl)cc(-n2c(=O)c3ccccc3c3ccccc3c2=O)cc1Cl = 121% (inactive)

growth measured on COc1cc(N=Nc2cc(Cc3ccc(N(C)C)cc3)c(N)cc2N(C)C)c2ncccc2c1 = -48.7% (active)

----------
- Test system: SK-MEL-28 melanoma
- EXPERIMENT_DESCRIPTION: NCI-60 one-dose screen, 48 h (100 = growth as untreated, 0 = no growth, -100 = all killed)
- TEST_SETTINGS: 10 µM unless noted
The panel holds about 83,000 compounds, 20% with a hit somewhere; the sample as a whole holds those more often.
Listing of entries alongside the reported growth.
Write the value in % as a bare number.

The following molecules have reported results that may help.
[[record]]
line_notation = "CCCCCc1nc2c(c3c1CCCC3)CCCC2"
unit_descriptor = "%"
test_result = 100

[[record]]
line_notation = "COc1ccc(-c2nc(SCC(=O)Nc3nc(-c4ccccc4)cs3)[nH]c(=O)c2C#N)cc1"
unit_descriptor = "%"
test_result = 104

[[record]]
line_notation = "Cc1nc2c(c(N3CCCc4ccccc43)n1)CCC2"
unit_descriptor = "%"
test_result = 60.4

[[record]]
line_notation = "O=C(Cc1ccc(F)c(F)c1)Nc1cc(C2(C(F)(F)F)CC2)nn1Cc1ccccc1"
unit_descriptor = "%"
test_result = 18.6


// returns growth for COc1cc(C(=O)/C=C/c2c(-c3ccc(F)cc3)nc3sc(C)cn23)cc(OC)c1OC with SK-MEL-28 melanoma; value = 12.4
